target system: scFv-2 (120_15439_2), de novo designed single-chain antibody
procedure summary: BLI
experimental readout: Kd
In your response, put the unit directly after the numeric value.

Data point: DVFYPYPYASGS [dodecapeptide antigen … (as used in biolayer interferometry)] ; Kd = 14.4 nM
